# measured target: αvβ6 (Homo sapiens, UniProt P06756+P18564)
# Sequence (P06756 31-992 limits assumed): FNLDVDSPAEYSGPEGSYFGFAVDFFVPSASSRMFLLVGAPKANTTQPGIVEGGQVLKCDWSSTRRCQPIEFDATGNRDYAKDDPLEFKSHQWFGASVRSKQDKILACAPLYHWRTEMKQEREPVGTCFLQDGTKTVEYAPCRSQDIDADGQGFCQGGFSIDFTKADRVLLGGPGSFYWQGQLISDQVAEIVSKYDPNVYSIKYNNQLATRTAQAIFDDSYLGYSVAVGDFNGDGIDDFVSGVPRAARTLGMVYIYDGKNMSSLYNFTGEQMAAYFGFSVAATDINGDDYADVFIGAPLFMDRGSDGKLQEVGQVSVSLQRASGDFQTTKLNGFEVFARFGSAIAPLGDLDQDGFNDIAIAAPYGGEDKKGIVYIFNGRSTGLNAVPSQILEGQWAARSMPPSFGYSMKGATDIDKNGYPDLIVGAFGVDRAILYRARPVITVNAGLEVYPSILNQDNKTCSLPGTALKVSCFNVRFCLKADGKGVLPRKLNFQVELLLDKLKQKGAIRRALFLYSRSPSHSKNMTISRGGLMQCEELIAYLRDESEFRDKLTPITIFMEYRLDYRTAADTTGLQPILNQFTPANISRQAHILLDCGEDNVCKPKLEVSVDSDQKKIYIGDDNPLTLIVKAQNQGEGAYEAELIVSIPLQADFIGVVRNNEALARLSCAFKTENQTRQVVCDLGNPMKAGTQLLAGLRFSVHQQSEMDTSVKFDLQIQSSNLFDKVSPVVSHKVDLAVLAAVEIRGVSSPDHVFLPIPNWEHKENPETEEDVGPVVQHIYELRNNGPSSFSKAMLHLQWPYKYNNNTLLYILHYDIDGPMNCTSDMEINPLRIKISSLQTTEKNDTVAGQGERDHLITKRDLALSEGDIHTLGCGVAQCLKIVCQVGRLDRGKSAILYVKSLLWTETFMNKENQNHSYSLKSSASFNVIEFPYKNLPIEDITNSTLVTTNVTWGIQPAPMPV
# Sequence (P18564 22-707 limits assumed): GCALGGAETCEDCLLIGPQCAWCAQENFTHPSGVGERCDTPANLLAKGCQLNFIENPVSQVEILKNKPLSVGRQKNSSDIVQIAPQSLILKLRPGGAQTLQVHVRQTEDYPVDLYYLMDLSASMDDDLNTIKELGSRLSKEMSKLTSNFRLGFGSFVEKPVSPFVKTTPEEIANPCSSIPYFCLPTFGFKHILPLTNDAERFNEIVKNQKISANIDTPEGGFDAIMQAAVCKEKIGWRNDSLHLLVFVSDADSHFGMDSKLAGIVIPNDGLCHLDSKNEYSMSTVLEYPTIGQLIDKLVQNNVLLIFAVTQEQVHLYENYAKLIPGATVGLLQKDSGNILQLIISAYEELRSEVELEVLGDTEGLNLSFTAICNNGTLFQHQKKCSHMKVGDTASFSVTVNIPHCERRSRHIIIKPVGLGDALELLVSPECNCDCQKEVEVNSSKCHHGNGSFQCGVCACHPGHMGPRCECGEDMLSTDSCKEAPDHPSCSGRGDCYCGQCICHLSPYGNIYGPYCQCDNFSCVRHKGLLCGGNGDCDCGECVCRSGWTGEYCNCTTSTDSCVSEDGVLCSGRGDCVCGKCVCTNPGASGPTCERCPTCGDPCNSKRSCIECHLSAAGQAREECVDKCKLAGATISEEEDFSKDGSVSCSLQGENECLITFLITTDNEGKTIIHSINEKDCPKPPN
# protocol details: Solid Phase Integrin αvβ6 Assay
pIC50: −log10 of the molar value. Where a name gives a salt, the structure may show the parent alone.
Below, each of the compounds is paired with its reported pIC50 value.

[[record]]
compound = "COc1ccc([C@H](CC(=O)O)NC(=O)[C@@H]2CCCN(CCCc3ccc4c(n3)NCCC4)C2)cn1 [Compound 221, hydrochloride]"
test_result = "> 7.00"

[[record]]
compound = "O=C(NC[C@H](C(=O)O)c1ccc(F)c(-c2ccccc2)c1)[C@@H]1CCCN(CCCc2ccc3c(n2)NCCC3)C1"
test_result = "> 7.00"

[[record]]
compound = "O=C(NC[C@H](Nc1cc(C(F)(F)F)ncn1)C(=O)O)[C@@H]1CCCN(CCCc2ccc3c(n2)NCCC3)C1"
test_result = "> 7.00"


Reported pIC50 for `O=C(N[C@@H](CNC(=O)[C@@H]1CCCN(CCCc2ccc3c(n2)NCCC3)C1)C(=O)O)c1ccccc1` was > 7.00

Value of pIC50 reported for the compound `O=C(CC[C@@H](NC(=O)[C@@H]1CCCN1S(=O)(=O)c1ccccc1)C(=O)O)N[C@H]1CCN(C(=O)CCCc2ccc3c(n2)NCCC3)C1` is < 6.00

Form field pIC50, entry O=C(O)C[C@H](NC(=O)[C@@H]1CCCN(CCCc2ccc3c(n2)NCCC3)C1)c1cccc(-c2ccccc2)c1 [Compound 240, hydrochloride] : > 7.00

* * *

Parameter: IC50. Scope: all listed entries.
# measured target: αvβ1 (Homo sapiens, UniProt P05556+P06756)
# Sequence (P06756 31-992 limits assumed): as the sequence (P06756 31-992 limits assumed) above
# Sequence (P05556 21-728 limits assumed): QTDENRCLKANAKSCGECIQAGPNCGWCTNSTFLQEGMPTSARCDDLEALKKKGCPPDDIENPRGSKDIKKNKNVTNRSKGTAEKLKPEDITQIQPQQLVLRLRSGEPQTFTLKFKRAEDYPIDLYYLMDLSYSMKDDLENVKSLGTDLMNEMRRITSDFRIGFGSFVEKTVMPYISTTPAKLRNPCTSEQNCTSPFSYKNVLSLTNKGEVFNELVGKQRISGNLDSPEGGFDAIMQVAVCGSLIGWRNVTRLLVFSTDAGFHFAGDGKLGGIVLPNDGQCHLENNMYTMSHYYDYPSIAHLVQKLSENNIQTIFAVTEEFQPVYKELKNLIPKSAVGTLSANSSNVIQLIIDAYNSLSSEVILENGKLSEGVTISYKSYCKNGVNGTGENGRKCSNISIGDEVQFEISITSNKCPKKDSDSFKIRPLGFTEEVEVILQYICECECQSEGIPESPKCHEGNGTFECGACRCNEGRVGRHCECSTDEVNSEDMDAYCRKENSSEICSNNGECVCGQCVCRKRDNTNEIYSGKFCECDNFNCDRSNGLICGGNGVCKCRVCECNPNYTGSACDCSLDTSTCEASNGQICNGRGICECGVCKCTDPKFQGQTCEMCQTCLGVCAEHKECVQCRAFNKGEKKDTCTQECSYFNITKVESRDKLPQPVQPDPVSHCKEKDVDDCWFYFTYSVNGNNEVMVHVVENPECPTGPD
# protocol details: Solid Phase Integrin αvβ1 Assay
Structures can show the parent of a compound that is named as a salt.

Previously resolved entries follow.
[[record]]
compound = "O=C(O)C[C@H](NC(=O)[C@@H]1CCCN(CCCc2ccc3c(n2)NCCC3)C1)c1cccc(C(F)(F)F)c1 (single isomer, unassigned) [Compound 203-A, hydrochloride]"
measurement_type = "IC50"
test_result = "> 1000 nM"

[[record]]
compound = "O=C(O)C[C@@H](CO[C@@H]1CCCN(Cc2ccc3c(n2)NCCC3)C1)c1ccccc1 [Compound 355]"
measurement_type = "IC50"
test_result = "100 to 1000 nM"

[[record]]
compound = "O=C(NC[C@H](Nc1ccnc2ccccc12)C(=O)O)[C@@H]1CCCN(CCCc2ccc3c(n2)NCCC3)C1 [Compound 273]"
measurement_type = "IC50"
test_result = "< 100 nM"


response.value for O=C(NC[C@H](C(=O)O)c1ccccc1C1CC1)[C@@H]1CCCN(CCCc2ccc3c(n2)NCCC3)C1 [Compound 260-A] (field: IC50) = < 100 nM

IC50 measured on O=C(O)C[C@H](NC(=O)[C@@H]1CCCN(CCCc2ccc3c(n2)NCCC3)C1)c1ccc2c(c1)OCO2 [Compound 214] = < 100 nM

compound O=C(O)[C@@H](CCO[C@@H]1CCCN(CCCc2ccc3c(n2)NCCC3)C1)Nc1ncnc2ccsc12 [Compound 511] , IC50 observed: < 100 nM

The compound O=C(O)[C@@H](CCO[C@@H]1CCCN(CCCCc2ccc3c(n2)NCCC3)C1)NC(=O)C12CCC(CC1)CC2 [Compound 384] showed IC50 equal to > 1000 nM

* * *

# measured target: αvβ1 (Homo sapiens, UniProt P05556+P06756)
# protocol details: Solid Phase Integrin αvβ1 Assay
Each record here notes measured IC50.

Example entries begin here.
[[record]]
molecule = "O=C(O)[C@@H](CCO[C@H]1CCCN(CCCc2ccc3c(n2)NCCC3)C1)Nc1ncnc2ccccc12 [Compound 444]"
measured_target = "αvβ1 (Homo sapiens, UniProt P05556+P06756)"
test_result = "> 1000 nM"

[[record]]
molecule = "O=C(O)C[C@H](NC(=O)[C@@H]1CCCN(CCCc2ccc3c(n2)NCCC3)C1)c1cccc(-n2cccn2)c1 [Compound 537]"
measured_target = "αvβ1 (Homo sapiens, UniProt P05556+P06756)"
test_result = "< 100 nM"

[[record]]
molecule = "CC1(CN[C@@H](CNC(=O)[C@@H]2CCCN(CCCc3ccc4c(n3)NCCC4)C2)C(=O)O)CCCCC1 [Compound 269]"
measured_target = "αvβ1 (Homo sapiens, UniProt P05556+P06756)"
test_result = "> 1000 nM"

[[record]]
molecule = "CN1CCc2ccc(S(=O)(=O)N3CCC[C@@H](C(=O)N[C@@H](CNC(=O)[C@@H]4CCCN(CCCc5ccc6c(n5)NCCC6)C4)C(=O)O)C3)cc21 [Compound 267]"
measured_target = "αvβ1 (Homo sapiens, UniProt P05556+P06756)"
test_result = "< 100 nM"

[[record]]
molecule = "CNC(=O)[C@H]1C[C@H](C(=O)N[C@@H](CC(=O)O)c2ccccc2)CN(CCCc2ccc3c(n2)NCCC3)C1 [Compound 607]"
measured_target = "αvβ1 (Homo sapiens, UniProt P05556+P06756)"
test_result = "< 100 nM"


Proceeding to the next molecule to report its IC50.
# molecule O=C(CC[C@H](NC(=O)[C@@H]1CCCN1S(=O)(=O)c1ccccc1)C(=O)O)N[C@H]1CCN(C(=O)CCCc2ccc3c(n2)NCCC3)C1 [Compound 439] ; its IC50 = < 100 nM
